# TARGET OR TEST SYSTEM: recombinant human mGluR2 (Homo sapiens (Human), UniProt Q14416)
# Sequence (Q14416 19-872): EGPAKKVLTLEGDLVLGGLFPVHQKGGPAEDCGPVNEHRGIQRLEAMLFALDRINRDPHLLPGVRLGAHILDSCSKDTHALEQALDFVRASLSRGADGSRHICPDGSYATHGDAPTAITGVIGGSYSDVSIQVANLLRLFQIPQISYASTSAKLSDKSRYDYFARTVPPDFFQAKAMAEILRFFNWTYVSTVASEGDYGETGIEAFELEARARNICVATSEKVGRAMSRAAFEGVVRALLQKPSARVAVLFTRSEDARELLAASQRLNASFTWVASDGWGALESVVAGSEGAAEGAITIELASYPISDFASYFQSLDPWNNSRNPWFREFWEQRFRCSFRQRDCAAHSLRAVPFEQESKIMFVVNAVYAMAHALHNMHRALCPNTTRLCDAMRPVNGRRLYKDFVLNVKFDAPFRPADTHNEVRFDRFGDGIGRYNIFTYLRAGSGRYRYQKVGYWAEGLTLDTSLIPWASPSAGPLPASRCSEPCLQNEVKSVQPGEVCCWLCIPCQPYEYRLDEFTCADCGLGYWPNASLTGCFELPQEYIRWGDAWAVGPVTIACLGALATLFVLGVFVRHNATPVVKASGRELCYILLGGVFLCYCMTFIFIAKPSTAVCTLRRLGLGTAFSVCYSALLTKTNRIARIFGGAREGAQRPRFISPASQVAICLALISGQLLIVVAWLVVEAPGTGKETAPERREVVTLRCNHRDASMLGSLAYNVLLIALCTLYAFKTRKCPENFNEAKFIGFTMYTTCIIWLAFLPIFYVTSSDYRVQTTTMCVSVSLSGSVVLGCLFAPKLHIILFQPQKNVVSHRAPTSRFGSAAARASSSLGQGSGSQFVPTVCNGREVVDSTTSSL
# EXPERIMENT SUMMARY: FLIPR Ca2+ mobilization antagonist assay in CHO dhfr- cells expressing human mGluR2 and Gα16
# CONDITION LABEL: antagonist response after addition of 2,500 nM glutamate, Fluo-4 AM, FLIPR384
Each entry below carries its reported pIC50.
Bear in mind: pIC50 is minus log10 of a mol/L concentration; give just that figure.

Below, 5 molecules whose answers are already recorded.
Cc1cn(-c2cc(C(N)=O)nc3c2CCN(Cc2ccnc(C(F)(F)F)c2)C3)cn1 [Example 5-1]	6.94
NC(=O)c1cc(-c2c(F)cccc2Cl)c2c(n1)CN(Cc1ccnc(C(F)(F)F)n1)CC2 [Example 11-7]	7.34
NC(=O)c1cc(N2CCCC(F)C2)c2c(n1)CN(Cc1ccnc(C(F)(F)F)c1)CC2 (single isomer, unassigned) [Example 5-6B]	7.76
CC1c2nc(C(N)=O)cc(N3CCCCC3)c2CCN1Cc1ccnn1C(C)C (single isomer, unassigned) [Example 1-19]	7.88
CC1(C)CC(F)(CN2CCc3c(-c4ccc(F)cc4F)cc(C(N)=O)nc3C2)CO1 (single isomer, unassigned) [Example 14-1A]	7.76

Consider the additional molecule presented here.
Given item Cc1cc(CN2CCc3c(-c4ccc(F)cc4F)cc(C(N)=O)nc3C2)n(C)n1 [Example 1-7] , the value recorded as its pIC50 is 7.86
